# Lookup of reported Survival rate (%) keyed by entry
test system: Escherichia coli No. 22; assay: Test 3: protective effect against bacterial infection (i.p. 8, 7, 4, 3 and 2 days before infection); format: in vivo, ICR strain mice; conditions: 0.01 mg/kg i.p. 8, 7, 4, 3 and 2 days before i.p. E. coli infection; mice observed 4 days
Number in %, nothing else.

Look over these answered cases.
Identify the measured Survival rate (%) of H-KLKSE-OH [Example 15-(2), H-Lys-Leu-Lys-Ser-Glu-OH] for Escherichia coli No. 22.
80

Identify the measured Survival rate (%) of H-NVKAKIQDKEG-OH [Example 8-(2)] for Escherichia coli No. 22.
80

Identify the measured Survival rate (%) of H-KETIEQEKQ-OH [Example 12-(2), H-Lys-Glu-Thr-Ile-Glu-Gln-Glu-Lys-Gln-OH] for Escherichia coli No. 22.
70

Identify the measured Survival rate (%) of H-KFDKSKLKKTETQE-OH [Example 10-(2)] for Escherichia coli No. 22.
50

Identify the measured Survival rate (%) of H-EQEKQ-OH [Example 11-(2), H-Glu-Gln-Glu-Lys-Gln-OH] for Escherichia coli No. 22.
70

Continuing:
Identify the measured Survival rate (%) of H-KSKLKKTETQE-OH [Example 9-(2)] for Escherichia coli No. 22.
70

Identify the measured Survival rate (%) of H-KEKKE-OH [Example 14-(2), H-Lys-Glu-Lys-Lys-Glu-OH] for Escherichia coli No. 22.
50
